// data source = PubChem BioAssay

# System: Human papillomavirus type 1a protein E7 (residues 44-93)
# Protocol details: small molecules binding HPV E7 44-93 – biochemical, small-molecule microarray, residues 44-93, 635 nm fluorescence, primary screen (AID 1108);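 also: E7 fragment applied at 1 µg/mL in TBST for 1 h at 4 C; score combines spot fluorescence with its signal to noise ratio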
# Condition set: fluorescence 635 nm, higher = more signal
Reported endpoint: composite z-score

>  <Compound>
CC1CC/C=C\[C@H]2OC34C=CCN(C(C)(C)C)C(=O)[C@H]3N(CCCO)C(=O)[C@@H]4C2C(=O)O1 (some centres not stated)

>  <Reported measurement>
-0.0793

$$$$
>  <Compound>
O=C1C2C=CC(C(O)c3c(F)cccc3Cl)N(Nc3ccc([N+](=O)[O-])cc3)C2C(=O)N1c1ccccc1 (configuration not stated)

>  <Reported measurement>
1.41

$$$$
>  <Compound>
O=C1O[C@@H](c2ccccc2)[C@@H](c2ccccc2)N2[C@@H](c3ccc(OCCO)cc3)[C@]3(C(=O)Nc4ccc(C#CC5(O)CCCCCC5)cc43)[C@@H](C(=O)Nc3nc4ccccc4s3)[C@H]12

>  <Reported measurement>
1.44

$$$$
>  <Compound>
O=C1C[C@@](C(=O)NCc2ccccc2)(c2ccc([N+](=O)[O-])cc2)[C@@H](c2ccc(CO)cc2)N1C1CCCCC1

>  <Reported measurement>
0.653

$$$$
>  <Compound>
O=C1O[C@H](c2ccccc2)[C@H](c2ccccc2)N2[C@H]1[C@@H](C(=O)N1CCN(c3ncccn3)CC1)[C@]1(C(=O)Nc3ccc(C#CCCO)cc31)[C@H]2c1ccc(O)cc1

>  <Reported measurement>
1.08

$$$$
>  <Compound>
C=C(CCCC)/C(=C/C[C@H](OC(=O)c1ccncc1)c1ccccc1OCCO)c1cc(C(=O)OC)ccc1OC

>  <Reported measurement>
1.22

$$$$

We now examine a further compound.
composite z-score for COC(=O)C(CC#Cc1ccc2c(c1)[C@]1(C(=O)N2)[C@H](C(=O)NC[C@H](O)c2ccccc2)[C@H]2C(=O)O[C@H](c3ccccc3)[C@H](c3ccccc3)N2[C@@H]1c1ccccc1OCCO)C(=O)OC ? 1.45
